pIC50: −log10 of the molar value.
assay.endpoint: pIC50

Simply: O=C(CCNC(=O)OCc1ccccc1)OCN1C(=O)c2ccccc2S1(=O)=O , Coagulation factor X (Homo sapiens), pIC50 = < 4.48

Record O=C(CCCCNC(=O)OCc1ccccc1)OCN1C(=O)c2ccccc2S1(=O)=O has Coagulation factor X (Homo sapiens) pIC50 equal to < 4.48

###

Answer each item with its documented IC50.
- tested.on: Tryptase (Homo sapiens, UniProt Q9BZJ3+Q15661+Q9NRR2)
- protocol.text: Inhibitory activity was measured against human mast cell tryptase.
- Assay type: protein assay
Return type: number; implicit unit nM.

# molecule O=C(CNC(=O)OCc1ccccc1)OCN1C(=O)c2ccccc2S1(=O)=O ; its IC50 = 6940

IC50 measured on O=C(CCNC(=O)OCc1ccccc1)OCN1C(=O)c2ccccc2S1(=O)=O = 854

According to the records, this molecule O=C(Nc1ccc(C(=O)OCN2C(=O)c3ccccc3S2(=O)=O)cc1)OCc1ccccc1 displays IC50 of 64.3

# IC50 of O=C(NCc1ccccc1)Nc1ccc(C(=O)OCN2C(=O)c3ccccc3S2(=O)=O)cc1 = 950

IC50 for CC(C)(C)OC(=O)N[C@@H](CCCCNC(=O)OCc1ccccc1)C(=O)OCN1C(=O)c2ccccc2S1(=O)=O is 352

Query O=C(Cc1ccccc1)NCc1ccc(C(=O)OCN2C(=O)c3ccccc3S2(=O)=O)cc1 yields IC50 of 132

For O=C(CCCCCNC(=O)OCc1ccccc1)OCN1C(=O)c2ccccc2S1(=O)=O the molecule record lists IC50 as 436

Measured IC50, CC(C)(C)OC(=O)NCCCCCC(=O)OCN1C(=O)c2ccccc2S1(=O)=O : 5370

###

assay.endpoint: IC50

Considering O=C(CCCCNC(=O)OCc1ccccc1)OCN1C(=O)c2ccccc2S1(=O)=O , its IC50 with UniProtKB P00734 was recorded as > 33 µM

Record O=C(Nc1ccc(C(=O)OCN2C(=O)c3ccccc3S2(=O)=O)cc1)OCc1ccccc1 has UniProtKB P00734 IC50 equal to > 33 µM

I looked up O=C(CCNC(=O)OCc1ccccc1)OCN1C(=O)c2ccccc2S1(=O)=O and its IC50 for UniProtKB P00734 was > 33 µM
